Tested on: DMS-273
Assay: NCI tumour cell line growth inhibition, 48 h
Activity calls are given as the source filed them. Rule as the data show it: active = GI50 up to about 1.1 µM and inactive = higher.
Classes used: active, inactive

molecule	subject-of-test	discrete-label
CO[C@H](/C(C)=C/C=C/C(C)=C/c1coc(C)n1)[C@H](C)[C@H]1C[C@@H](O)[C@@]2(C)O[C@H]2/C=C/[C@@H](C)[C@@H]2C[C@@H](CC(=O)O2)C[C@H]2O[C@@H]2C(=O)O1	DMS-273	active
C=CC(=O)NCNC(=O)C=C	DMS-273	inactive
Cc1ccc(S(=O)(=O)c2c(N)c3nc4ccccc4n3c3nc4ccccc4nc23)cc1	DMS-273	inactive
CCCCN(CC)C(=O)C(=O)Cc1nc2ccc(C(=O)c3ccccc3)cc2nc1O	DMS-273	inactive
CCCCCCCCOCC(CO)OCCCCCCCC (centres undefined)	DMS-273	inactive
CC/C(=N\NS(=O)(=O)c1ccccc1)c1ccccc1	DMS-273	inactive
COc1ccc2nccc(NCCCN3CCN(CCCNc4ccnc5ccc(OC)cc45)CC3)c2c1	DMS-273	active
c1nc(N2CC2)c2cnn(C3CCCCO3)c2n1 (centres undefined)	DMS-273	inactive
COC(=O)/C(C#N)=C1\NN=NN1c1ccc(OC)cc1	DMS-273	inactive
